- Test system: K-562 leukemia
- test.summary: NCI tumour cell line growth inhibition, 48 h
# Lookup of reported TGI keyed by entry

[
  {
    "compound": "O=C(/C=C/c1cccc(B(O)O)c1)c1cccc(B(O)O)c1",
    "TGI": "9 µM"
  },
  {
    "compound": "CC(C)CNc1nc(N=[N+]=[N-])nc(NCC(C)C)n1",
    "TGI": "> 10 µM"
  },
  {
    "compound": "OC1C2C=CCC1CCC2 (stereo not given)",
    "TGI": "> 100 µM"
  },
  {
    "compound": "O=C1C=C(Nc2ccccc2C(=O)CC(=O)C(=O)Nc2ccc(Cl)c(Cl)c2)c2ccccc2C1=O",
    "TGI": "> 100 µM"
  },
  {
    "compound": "COC(=O)CNC(=O)Nc1cc(N2C(=O)ON3C2C(C)(C)N(O)C3(C)C)ccc1C (stereo not given)",
    "TGI": "> 100 µM"
  },
  {
    "compound": "C=C1CO[C@@H]2C[C@@H]1CC/C(C)=C/CC/C(C)=C/CC[C@@]2(C)O",
    "TGI": "> 46.2 µM"
  },
  {
    "compound": "Oc1[nH]c2ccc(Cl)cc2c1/C=c1/ccc2c(c1)N=C(c1cc(F)cc(F)c1)N=2",
    "TGI": "> 100 µM"
  },
  {
    "compound": "N#CSCC(=O)c1ccc(Cl)cc1",
    "TGI": "> 40.3 µM"
  },
  {
    "compound": "O=C1c2ccccc2C(=O)c2c(NC(=O)c3ccc4c5c(ncnc35)-c3ccccc3C4=O)cccc21",
    "TGI": "> 100 µM"
  },
  {
    "compound": "COc1ccc(C2S/C(=C\\c3cccc(O)c3)C(=O)N2NC(=O)Cc2ccccc2)cc1 (stereo not given)",
    "TGI": "> 100 µM"
  }
]

###

- Test system: EKVX NSCLC
- test.summary: NCI tumour cell line growth inhibition, 48 h
# Lookup of reported TGI keyed by entry

[
  {
    "compound": "Cc1cccc(N=C2NC(=O)C(CC(=O)Nc3ccc(Cl)cc3C)S2)c1 (centres undefined)",
    "TGI": "> 100 µM"
  },
  {
    "compound": "ClC1=C(Cl)C(Cl)=C(Cl)C1=Cc1ccc(Cl)cc1",
    "TGI": "3.08 µM"
  },
  {
    "compound": "NC(=O)C(=CN1CC(=O)NC1=S)C(N)=O",
    "TGI": "> 100 µM"
  },
  {
    "compound": "COc1ccc(/C(Cl)=C/c2ccc(Cl)c(Cl)c2)cc1",
    "TGI": "61.8 µM"
  },
  {
    "compound": "CCOC(=O)CCC(NC(=O)c1ccc(Oc2nc3ccccc3nc2C(=O)OCC)cc1)C(=O)OCC (centres undefined)",
    "TGI": "> 100 µM"
  },
  {
    "compound": "Nc1cccc2nsnc12",
    "TGI": "> 100 µM"
  },
  {
    "compound": "NC(=O)CCC(NC(=O)C(F)(F)F)C(=O)O (centres undefined)",
    "TGI": "> 100 µM"
  },
  {
    "compound": "Cc1cc2c(=O)[nH]nc(N)c2c(N)n1",
    "TGI": "> 100 µM"
  },
  {
    "compound": "COP(=O)(C(/C=C/c1ccccc1)OC(C)=O)[C@@H]1CCCC[C@H]1N(CC(C)(C)C)C(C)=O (some centres undefined)",
    "TGI": "57.8 µM"
  },
  {
    "compound": "CC(OCc1ccccc1)C(NC(=O)C1CSSCC(NC(=O)C(Cc2ccccc2)NC(=O)OCc2ccccc2)C(=O)NC(Cc2ccccc2)C(=O)NC(Cc2cn(C=O)c3ccccc23)C(=O)NC(CCCCNC(=O)OCc2ccccc2)C(=O)NC(C(C)OCc2ccccc2)C(=O)N1)C(N)=O (centres undefined)",
    "TGI": "> 100 µM"
  },
  {
    "compound": "CCOC(=O)c1c(C(F)(F)F)oc2c1ccc1nc3nonc3nc12",
    "TGI": "33.3 µM"
  },
  {
    "compound": "CS(=O)(=O)OCc1c(O)c2c(c(O)c1COS(C)(=O)=O)C(=O)C=CC2=O",
    "TGI": "> 100 µM"
  },
  {
    "compound": "CCN1C(=O)N(CC)C2C1NN=c1s/c(=C\\c3ccccc3)c(=O)n12 (centres undefined)",
    "TGI": "> 100 µM"
  },
  {
    "compound": "COC(=O)c1ccc(NCc2cc(O)ccc2O)cc1O",
    "TGI": "27 µM"
  },
  {
    "compound": "C[n+]1c(-c2ccc(/C=N\\NC(=O)c3ccc(C(=O)N/N=C/c4ccc(-c5cn6ccsc6[n+]5C)cc4)cc3)cc2)cn2ccsc21",
    "TGI": "34.3 µM"
  },
  {
    "compound": "CC12C(=O)N(CCN)C(=O)C1C1c3ccccc3C2c2ccccc21 (centres undefined)",
    "TGI": "> 100 µM"
  },
  {
    "compound": "CP(C)C.[Ag][I]",
    "TGI": "> 100 µM"
  },
  {
    "compound": "COC(=O)c1cc(C)n(NC(=O)OC(C)(C)C)c1C",
    "TGI": "> 100 µM"
  },
  {
    "compound": "O=c1[nH]c2c(O)cccc2c2cc3c(c(O)c12)OCO3",
    "TGI": "77.4 µM"
  },
  {
    "compound": "O=[N+]([O-])c1cc(/C=N/NS(=O)(=O)c2ccc(F)cc2)c(O)c([N+](=O)[O-])c1",
    "TGI": "> 100 µM"
  },
  {
    "compound": "C=C(C)[C@@H]1CC[C@]2(C)[C@H](C=CC3=C4C[C@@](C)(CO)CC[C@]4(C)CC[C@]32C)[C@@]1(C)CCCN",
    "TGI": "3.1 µM"
  },
  {
    "compound": "CNCCOc1nc2c3cnccc3cc(-c3cc(OC)c(OC)c(OC)c3)c2c2ccncc12",
    "TGI": "0.432 µM"
  },
  {
    "compound": "NC(N)=NS(=O)(=O)c1ccc(NNc2c3ccccc3nc3c(C(=O)Nc4ccc(S(N)(=O)=O)cc4)cccc23)cc1",
    "TGI": "> 100 µM"
  },
  {
    "compound": "CN(CC#N)C(=O)Cc1ccc([N+](=O)[O-])cc1",
    "TGI": "> 10 µM"
  },
  {
    "compound": "N#Cc1ccccc1Nc1ccccc1S",
    "TGI": "> 100 µM"
  },
  {
    "compound": "CO[C@@]12CC(=O)/C(=C(O)\\C=C\\c3ccccc3)C(=O)[C@]1(OC)Cc1ccccc1O2",
    "TGI": "> 100 µM"
  },
  {
    "compound": "C=CCC1=CC2(OC)C(=O)C(OC)(OC)C1C1C(OC)(OC)C(=O)C(OC)=CC12CC=C (centres undefined)",
    "TGI": "> 100 µM"
  },
  {
    "compound": "COC(=O)/C(=C\\C(=O)c1ccc(Br)cc1)NN=C(c1ccccc1)c1ccccc1",
    "TGI": "> 10 µM"
  },
  {
    "compound": "O=C1c2ccccc2C(=O)c2sc(Nc3ccc(Cl)c(Cl)c3)nc21",
    "TGI": "29.5 µM"
  },
  {
    "compound": "C[C@H](O)C(=O)SC[C@H](NC(=O)CC[C@@H](N)C(=O)O)C(=O)NCC(=O)O",
    "TGI": "> 100 µM"
  },
  {
    "compound": "COc1nc2c(c(=O)n1C)NC(C(O)C(O)CO)C=N2 (centres undefined)",
    "TGI": "> 10 µM"
  },
  {
    "compound": "Cc1sc(/N=C2/NC(=O)CS2)nc1-c1nc(/N=C2/NC(=O)CS2)sc1C",
    "TGI": "> 50 µM"
  },
  {
    "compound": "CC(C)(C)C(=O)[CH-]C(=O)C(F)(F)C(F)(F)C(F)(F)F.CC(C)(C)C(=O)[CH-]C(=O)C(F)(F)C(F)(F)C(F)(F)F.[O-]CC1OC(O)C(O)C(O)C1O.[O-]CC1OC(O)C(O)C(O)C1O.[Ti+4]",
    "TGI": "> 100 µM"
  },
  {
    "compound": "N#CC(c1ccccc1)N(CCc1ccccc1)C(=O)Oc1ccccc1 (centres undefined)",
    "TGI": "> 100 µM"
  },
  {
    "compound": "O=C1C2Nc3ccccc3SC2C(=O)N1c1cccc([N+](=O)[O-])c1 (centres undefined)",
    "TGI": "> 100 µM"
  },
  {
    "compound": "CCc1oc2ccc(OC)c3c2c1C=CC=C3",
    "TGI": "> 100 µM"
  },
  {
    "compound": "COc1cc(C2C(Cl)C(=O)N2NC(=O)Cc2ccccc2)ccc1O (centres undefined)",
    "TGI": "> 100 µM"
  },
  {
    "compound": "CN(C)/C=N/S(=O)(=O)c1nn2c(C=O)c(-c3ccc([N+](=O)[O-])cc3)nc2s1",
    "TGI": "58.7 µM"
  },
  {
    "compound": "Cn1c(N)c(-c2c3ccccc3nc3ccccc23)c(=O)n(C)c1=O",
    "TGI": "> 100 µM"
  }
]
